Below: a set of entries, each annotated with reported IC50.
Molecular target: BRD4 BD1 (Homo sapiens)
Experiment: AlphaScreen binding assay, BRD4 Bromodomain 1

The cases that follow already have their IC50 on record.
[[record]]
molecule = "CC(=O)N1c2ccc(-c3cnn(C4CC4)c3)cc2N(C(=O)Oc2ccccn2)C[C@@H]1C"
measuredresult = "100 to 1000 nM"

[[record]]
molecule = "CC(=O)N1c2ccc(-c3c[nH]nc3C)cc2N(C(=O)OC(C)C)CC1C (stereo not drawn)"
measuredresult = "100 to 1000 nM"

[[record]]
molecule = "CC(=O)N1c2ccc(-c3ccc(N(C)S(C)(=O)=O)cc3)cc2N(C(=O)Oc2ccccn2)C[C@@H]1C"
measuredresult = "100 to 1000 nM"

[[record]]
molecule = "CC(=O)N1c2ccc(-c3cccc(S(N)(=O)=O)c3)cc2N(C(=O)OC(C)C)C[C@@H]1C"
measuredresult = "1000 to 10000 nM"

[[record]]
molecule = "CC(=O)N1c2ccc(-c3cnn(CCN4CCOCC4)c3)cc2N(C(=O)C2CC2)C[C@@H]1C"
measuredresult = "1000 to 10000 nM"


// IC50 (BRD4 BD1 (Homo sapiens)) for "CC(=O)N1c2ccc(-c3cnn(CCC(N)=O)c3)cc2N(C(=O)OC(C)C)C[C@@H]1C" = 100 to 1000 nM

Param item: "COCCC(=O)N1C[C@H](C)N(C(C)=O)c2ccccc21" ; param system: BRD4 BD1 (Homo sapiens); output IC50: > 10000 nM

IC50 for BRD4 BD1 (Homo sapiens) with input "CC(=O)N1c2ccc(-c3cncc(Cl)c3)cc2N(C(=O)c2ccco2)C[C@@H]1C" equals 1000 to 10000 nM

Record "CC(=O)N1c2ccccc2N(Cc2ccc(F)cc2F)C[C@@H]1C" has BRD4 BD1 (Homo sapiens) IC50 equal to > 10000 nM

Hey, BRD4 BD1 (Homo sapiens) data for "CC(=O)N1c2ccc(-c3ccc(C(=O)N4C[C@@H]5C[C@H]4CN5)cc3)cc2N(C(=O)OC(C)C)C[C@@H]1C" : IC50 came out at 100 to 1000 nM

"COc1cc(Cl)ccc1S(=O)(=O)N1C[C@H](C)N(C(C)=O)c2ccccc21" on BRD4 BD1 (Homo sapiens) gives IC50 = > 10000 nM

Bench note, BRD4 BD1 (Homo sapiens): entry "CC(=O)N1c2ccc(-c3cnn(C(C)(C)CO)c3)cc2N(C(=O)Oc2ccc(F)cc2)C[C@@H]1C" , its IC50 = 100 to 1000 nM

Tested system BRD4 BD1 (Homo sapiens); IC50 recorded for "CC(=O)N1c2ccc(-c3ccc(S(=O)(=O)CCN)cc3)cc2N(C(=O)c2ccco2)C[C@@H]1C" was 100 to 1000 nM

Lab note: molecule "CC(=O)N1c2ccc(-c3ccc(S(=O)(=O)n4cccn4)cc3)cc2N(C(=O)OC2CCOCC2)C[C@@H]1C" tested on BRD4 BD1 (Homo sapiens); recorded IC50 was 100 to 1000 nM

I looked up "COC(=O)N1c2ccc(-c3cnn(Cc4ccncc4)c3)cc2N(C(=O)OC(C)C)C[C@@H]1C" and its IC50 for BRD4 BD1 (Homo sapiens) was 100 to 1000 nM

====

Listed molecules paired with reported IC50
Molecular target: BRD4 BD1 (Homo sapiens, UniProt O60885)
Assay: AlphaScreen binding assay, BRD4 Bromodomain 1

So, "C[C@H]1CN(C(=O)c2ccco2)c2cc(-c3ccc(S(C)(=O)=O)cc3)ccc2N1C(N)=O" ? Its IC50 was > 10000 nM

The recorded IC50 for "CC(=O)N1c2ccc(-c3ccc4cn(C)nc4c3)cc2N(C(=O)c2ccco2)C[C@@H]1C" is 1000 to 10000 nM

Entry "CC(=O)N1c2ccc(-c3cnn(C4CC4)c3)cc2N(C(=O)Oc2cccc3ccccc23)C[C@@H]1C" , IC50 reported as 1000 to 10000 nM

For reference, reported IC50 for "COCCn1cc(-c2ccc3c(c2)N(C(=O)c2ccco2)C[C@H](C)N3C(C)=O)cn1" stands at 100 to 1000 nM

The molecule "CC(=O)N1c2ccc(-c3cnn(C4CS(=O)(=O)C4)c3)cc2N(C(=O)OC2CCC2)C[C@@H]1C" showed IC50 equal to 100 to 1000 nM

Consider "C[C@H]1CN(C(=O)c2ccco2)c2cc(-c3ccc(S(C)(=O)=O)cc3)ccc2N1C(=O)N1CCCC1" . Its measured IC50 is > 10000 nM

Looking up "COC(=O)N1c2ccc(-c3cnn(C4CC4)c3)cc2N(C(=O)OC2CCOCC2)C[C@@H]1C" , I found its IC50 recorded as 100 to 1000 nM

# IC50 of "CC(=O)N1c2ccc(-c3cnn(C4COC4)c3)cc2N(C(=O)CC2CC2)C[C@@H]1C" = 1000 to 10000 nM

Sample "CC(=O)N1c2ccc(-c3cnn(CCO)c3)cc2N(C(=O)OC2CC(F)(F)C2)C[C@@H]1C" ; IC50 observed: 100 to 1000 nM

====

Molecular target: BRD4 BD2 (Homo sapiens)
Assay: AlphaScreen binding assay, BRD4 Bromodomain 2
metric: IC50

For record CC(=O)N1c2ccc(-c3ccc(S(=O)(=O)C4CC4)cc3)cc2N(C(=O)OC(C)C)C[C@@H]1C [Example I-1034] the listed IC50 is 50 to 500 nM

// IC50 value for CC(=O)N1c2ccc(-c3cnn(CC(=O)N(C)C)c3)cc2N(C(=O)OC(C)C)C[C@@H]1C [Example I-305] : 50 to 500 nM

Query CC(C)OC(=O)N1C[C@H](C)N(C(=O)C2CC2)c2ccc(-c3ccc(C(=O)N4CC[C@H](N(C)C)C4)cc3)cc21 [Example I-566] yields IC50 of 50 to 500 nM

Reported IC50 for CC(=O)N1c2ccccc2N(C(=O)c2ccc3ncsc3c2)C[C@@H]1C [Example I-724] was > 500 nM

Lab note: measured IC50 of CC(=O)N1c2ccc(-c3ccc(N4CCCS4(=O)=O)cc3)cc2N(C(=O)Oc2cccnc2)C[C@@H]1C [Example I-1286] was 50 to 500 nM

Item: COC(=O)N1c2ccc(-c3cnn(CCC#N)c3)cc2N(C(=O)Oc2ccccn2)C[C@@H]1C [Example I-1327] | IC50: 50 to 500 nM

Note to self: IC50 recorded for CC(=O)N1c2ccccc2N(Cc2ccc(N3CCOCC3)nc2)C[C@@H]1C [Example I-922] was > 500 nM

The recorded IC50 for entry CC(=O)N1c2ccc(-c3ccc4c(c3)OCCO4)cc2N(C(=O)c2ccco2)C[C@@H]1C [Example I-825] equals < 50 nM

====

Molecular target: BRD4 BD1 (Homo sapiens)
Assay: AlphaScreen binding assay, BRD4 Bromodomain 1
pIC50: −log10 of the molar value.
# Lookup of reported pIC50 keyed by entry

These solved cases illustrate the format of a correct answer.
[[record]]
molecule = "CC(=O)N1c2ccccc2N(C(=O)c2csc(Nc3cccnc3)n2)C[C@@H]1C"
measuredresult = "< 5.00"

[[record]]
molecule = "CC(=O)N1c2ccc(-c3cnn(CC(C)(C)O)c3)cc2N(C(=O)OC2CCC(F)(F)CC2)C[C@@H]1C"
measuredresult = "6.00 to 7.00"

[[record]]
molecule = "CC(C)OC(=O)N1C[C@H](C)N(C(=O)C2CC2)c2ccc(-c3cnn(CC(C)(C)O)c3)cc21"
measuredresult = "6.00 to 7.00"

[[record]]
molecule = "CC(=O)N1c2ccc(-c3ccc(S(C)(=O)=O)cc3)cc2N(C(=O)c2ccco2)CC1CF (stereo not drawn)"
measuredresult = "< 5.00"

[[record]]
molecule = "CC(=O)N1c2ccc(-c3ccc(S(C)(=O)=O)cc3)cc2N(C(=O)c2ccc(S(=O)(=O)N(C)C)o2)C[C@@H]1C"
measuredresult = "< 5.00"


Reported pIC50 ( "CC(=O)N1c2ccc(-c3cnn(C4COC4)c3)cc2N(C(=O)OCC(F)F)C[C@@H]1C" ) = 5.00 to 6.00

Record "CC(=O)N1c2ccccc2N(S(=O)(=O)c2cccnc2)C[C@@H]1C" . Reported pIC50: < 5.00

Quick note, pIC50 for "CC(=O)N1c2ccc(-c3cnn(C4CC4)c3)cc2N(C(=O)Oc2cccc3ccc(C)nc23)C[C@@H]1C" landed at 6.00 to 7.00

According to the records, this molecule "CC(=O)N1c2ccc(-c3cnn(C[C@H]4CCNC4)c3)cc2N(C(=O)OC(C)C)C[C@@H]1C" displays pIC50 of 6.00 to 7.00

pIC50 for CC(=O)N1c2ccc(-c3c[nH]nc3C(F)(F)F)cc2N(C(=O)OC(C)C)CC1C (stereo not drawn) is 5.00 to 6.00

Query "COC(=O)N1c2ccc(-c3ccc(CS(N)(=O)=O)cc3)cc2N(C(=O)C2CC2)C[C@@H]1C" yields pIC50 of 5.00 to 6.00

Given item "CC[C@H]1CN(C(=O)c2ccco2)c2cc(-c3ccc(S(C)(=O)=O)cc3)ccc2N1C(C)=O" , the value recorded as its pIC50 is 5.00 to 6.00

Note to self: pIC50 recorded for "CC(=O)N1c2ccc(-c3cc(Cl)cc(S(C)(=O)=O)c3)cc2N(C(=O)OC2CCOCC2)C[C@@H]1C" was 6.00 to 7.00

Summary for this molecule, "CC(=O)N1c2ccc(-c3cnoc3)cc2N(C(=O)c2ccco2)C[C@@H]1C" : pIC50 is 5.00 to 6.00

molecule "CC(=O)N1c2ccc(-c3ccc4c(c3)N(C)S(=O)(=O)N4)cc2N(C(=O)C2CCC2)C[C@@H]1C" , pIC50 observed: 6.00 to 7.00

FYI, the data here is from patent US10703764B2.
